- target: T1, human TSH receptor (full length), coated on tubes (human, UniProt P16473 22-764)
- T1 construct: TSHR coated tubes as described in WO2004/050708A2; The receptor is full length and held on plastic tubes through a mouse MAb to the TSHR; also called thyroid stimulating hormone receptor
- protocol_details: inhibition of 125I-K1-70 Fab (competitor) binding to TSHR coated tubes; 0.003 µg/mL in HBD serum pool
experimental_endpoint: Inhibition of binding (%)

binder="K1-18 IgG (antibody, V domains shown, Human IgG1 kappa purified from hetero-hybridoma supernatant; also called human monoclonal autoantibody to the TSHR with TSH agonist activity) VH: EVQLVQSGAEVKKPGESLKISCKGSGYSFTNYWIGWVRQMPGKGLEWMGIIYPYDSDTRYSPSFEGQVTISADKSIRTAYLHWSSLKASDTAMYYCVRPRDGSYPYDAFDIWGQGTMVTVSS VL: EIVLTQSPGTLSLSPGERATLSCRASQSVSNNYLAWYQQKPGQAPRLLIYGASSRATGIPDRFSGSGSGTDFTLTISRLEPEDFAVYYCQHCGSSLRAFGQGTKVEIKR" measured=-9.4%
binder="K1-70 IgG (antibody, V domains shown, Human IgG1 lambda purified from hetero-hybridoma supernatant; also called human monoclonal autoantibody to the TSHR with TSH antagonist activity) VH: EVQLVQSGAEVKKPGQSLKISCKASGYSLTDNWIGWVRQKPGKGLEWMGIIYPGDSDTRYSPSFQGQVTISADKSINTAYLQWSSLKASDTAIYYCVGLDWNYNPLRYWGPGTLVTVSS VL: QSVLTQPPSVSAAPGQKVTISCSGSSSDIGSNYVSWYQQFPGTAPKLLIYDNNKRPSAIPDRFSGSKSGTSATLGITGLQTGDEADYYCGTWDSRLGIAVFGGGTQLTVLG" measured=-0.8%
binder="K1-70 Fab (Fab, V domains shown) VH: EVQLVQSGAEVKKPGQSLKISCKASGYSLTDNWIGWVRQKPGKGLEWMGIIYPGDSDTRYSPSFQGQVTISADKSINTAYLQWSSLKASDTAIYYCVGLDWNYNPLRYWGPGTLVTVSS VL: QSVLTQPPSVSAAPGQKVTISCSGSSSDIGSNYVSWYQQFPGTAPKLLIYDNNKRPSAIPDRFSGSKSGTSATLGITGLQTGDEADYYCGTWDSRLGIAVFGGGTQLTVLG" measured=2.5%
binder="K1-18 Fab (Fab, V domains shown) VH: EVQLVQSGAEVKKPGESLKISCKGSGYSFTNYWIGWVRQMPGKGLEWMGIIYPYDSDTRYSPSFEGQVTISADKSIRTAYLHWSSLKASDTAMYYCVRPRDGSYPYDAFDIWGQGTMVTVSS VL: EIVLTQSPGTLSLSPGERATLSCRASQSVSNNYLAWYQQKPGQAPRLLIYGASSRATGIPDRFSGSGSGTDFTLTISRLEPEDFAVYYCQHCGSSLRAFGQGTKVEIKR" measured=-9.6%
